# procedure.text: Pore volume by nitrogen gas adsorption (BJH method, BELSORP-mini II)
# Format: physicochemical
# measurement.parameters: total pore volume Vp, nitrogen adsorption at 77.3 K
test.readout: Pore Volume

Query :: Note down Pore Volume recorded for O=P([O-])([O-])OP(=O)([O-])OP(=O)([O-])[O-].[K+].[K+].[K+].[K+].[K+] [KTPP(V), Potassium tripolyphosphate, reference compound]
Result :: 1.1 10^−3 cm^3/g

Query :: Note down Pore Volume recorded for [Cl-].[Cl-].[Mg+2] [MgCl2(V), Magnesium chloride, reference compound]
Result :: 2.0 10^−3 cm^3/g

Query :: Note down Pore Volume recorded for O=P([O-])(O)O.O=P([O-])(O)O.[Ca+2] [MCPA(V), Monocalcium phosphate anhydrate, reference compound]
Result :: 2.3 10^−3 cm^3/g

Query :: Note down Pore Volume recorded for O=P([O-])([O-])OP(=O)([O-])[O-].[Cu+2].[Cu+2] [CuPP, Copper-II pyrophosphate]
Result :: 12 10^−3 cm^3/g

Query :: Note down Pore Volume recorded for O.O.O.O=P([O-])([O-])O.[Mg+2] [DMP, Dimagnesium phosphate trihydrate]
Result :: 6.0 10^−3 cm^3/g

Query :: Note down Pore Volume recorded for O=P([O-])([O-])OP(=O)([O-])[O-].[Zn+2].[Zn+2] [ZPP, Zinc pyrophosphate]
Result :: 10.5 10^−3 cm^3/g

Query :: Note down Pore Volume recorded for O.O.O=P([O-])([O-])[O-].O=P([O-])([O-])[O-].[Zn+2].[Zn+2].[Zn+2] [TZP, Trizinc phosphate dihydrate]
Result :: 6.3 10^−3 cm^3/g

Just for reference, patent US10231463B2 is where these values come from.
